Measurement Target: GST tagged truncated human mutant G2019S LRRK2 (Homo sapiens (Human), UniProt Q5S007, G2019S)
Sequence (Q5S007 970-2527 G2019S): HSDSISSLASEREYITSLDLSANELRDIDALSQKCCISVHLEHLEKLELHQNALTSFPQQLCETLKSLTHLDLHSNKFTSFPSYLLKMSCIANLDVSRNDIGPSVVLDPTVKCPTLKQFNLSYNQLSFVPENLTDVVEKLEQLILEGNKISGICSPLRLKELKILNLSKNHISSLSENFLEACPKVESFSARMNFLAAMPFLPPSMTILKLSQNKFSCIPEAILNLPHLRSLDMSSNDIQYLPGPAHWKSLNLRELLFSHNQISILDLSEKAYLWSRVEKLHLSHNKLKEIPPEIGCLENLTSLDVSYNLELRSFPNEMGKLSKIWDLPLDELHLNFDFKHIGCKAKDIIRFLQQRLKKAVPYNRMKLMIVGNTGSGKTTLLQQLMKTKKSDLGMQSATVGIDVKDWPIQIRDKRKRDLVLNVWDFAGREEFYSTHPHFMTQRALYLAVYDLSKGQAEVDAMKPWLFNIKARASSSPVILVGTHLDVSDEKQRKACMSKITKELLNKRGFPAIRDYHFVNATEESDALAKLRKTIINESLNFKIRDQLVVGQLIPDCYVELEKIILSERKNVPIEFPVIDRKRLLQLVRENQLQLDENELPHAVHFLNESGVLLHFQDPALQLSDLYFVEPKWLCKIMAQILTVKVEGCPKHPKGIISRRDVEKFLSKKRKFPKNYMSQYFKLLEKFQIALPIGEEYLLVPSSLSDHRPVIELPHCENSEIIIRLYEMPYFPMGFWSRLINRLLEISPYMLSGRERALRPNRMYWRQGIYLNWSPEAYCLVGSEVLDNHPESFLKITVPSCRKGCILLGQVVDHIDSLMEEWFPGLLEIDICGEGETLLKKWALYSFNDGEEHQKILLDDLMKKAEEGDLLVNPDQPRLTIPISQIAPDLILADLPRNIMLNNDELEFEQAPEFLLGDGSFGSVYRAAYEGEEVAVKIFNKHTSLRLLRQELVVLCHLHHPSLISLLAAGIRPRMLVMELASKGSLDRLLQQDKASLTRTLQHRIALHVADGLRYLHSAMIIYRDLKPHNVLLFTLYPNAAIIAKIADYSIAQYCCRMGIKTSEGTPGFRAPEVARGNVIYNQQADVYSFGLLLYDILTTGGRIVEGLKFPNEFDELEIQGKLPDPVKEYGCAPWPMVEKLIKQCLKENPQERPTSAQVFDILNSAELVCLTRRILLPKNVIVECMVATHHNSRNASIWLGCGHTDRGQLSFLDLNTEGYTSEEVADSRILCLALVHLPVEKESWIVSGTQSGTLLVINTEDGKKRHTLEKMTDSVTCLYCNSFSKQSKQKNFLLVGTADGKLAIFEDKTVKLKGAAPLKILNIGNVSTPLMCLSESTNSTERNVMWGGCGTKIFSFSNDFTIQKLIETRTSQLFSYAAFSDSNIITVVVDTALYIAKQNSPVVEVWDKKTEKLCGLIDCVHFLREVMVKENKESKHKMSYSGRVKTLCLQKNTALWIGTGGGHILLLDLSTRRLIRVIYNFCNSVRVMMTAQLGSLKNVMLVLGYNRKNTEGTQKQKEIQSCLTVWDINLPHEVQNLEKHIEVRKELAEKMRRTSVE
Assay Details: LRRK2 Km ATP LanthaScreen Assay
Type: biochemical
Condition Summary: 134 μM ATP (Km ATP), LRRKtide substrate, negative log of mean IC50 (molar)

Compound Structure String: CCn1cc(-c2nc(C(=O)Nc3cnn(C4CCC4)c3)cs2)cn1
LRRK2 pIC50: 7.41
//
Compound Structure String: O=C(Nc1cnn(C2CCC2)c1)c1ccn(-c2ncccn2)n1
LRRK2 pIC50: 5.71
//
Compound Structure String: O=C(Nc1cnn(C2CCC2)c1)c1cccc(-n2ccnc2)n1
LRRK2 pIC50: 5.91
//
Compound Structure String: N[C@H]1CC[C@](F)(Cn2cc(NC(=O)c3csc(-c4cn[nH]c4)n3)cn2)CC1
LRRK2 pIC50: 6.24
//
Compound Structure String: O=C(Nc1cnn(C2CCC2)c1)c1csc(Nc2ccccc2)n1
LRRK2 pIC50: 6.12
